experimental-system: T1, PDZRN3_1, Q9UPQ7
T1 sequence (Q9UPQ7 244-349, limits assumed, looked up): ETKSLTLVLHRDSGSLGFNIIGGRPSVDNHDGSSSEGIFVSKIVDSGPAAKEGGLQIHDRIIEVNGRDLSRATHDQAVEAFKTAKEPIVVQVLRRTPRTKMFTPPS
test-method-notes: holdup assay
Set-up: key: below the threshold = too weak to quantify, mostly under pKd 3.1 to 4
condition: plain residues with an end cap or a label only (N-terminal biotin on a linker: ttds)
Give measured pKd for each item. Keep answers brief.
I only need the number, thanks.

Provide only the value of recorded pKd for VNKVWDQSSV [CIT, O14578] 3.53

Give reported pKd value for DPRNTQTSQI [ABRAXAS2, Q15018] 3.54

Return pKd for the following binder: SEKHFRETEV [HTLV1-TAX1, P03409] 5.1

Please report the measured pKd for RTRQRNETQV [HPV51-E6, P26554] 4.06
